result.type: melting point

{"columns": ["compound", "melting point"],
 "data": [
  ["CC1(C)C(=O)Nc2ccc(C#N)cc2N(CC2CC2)C1=O", "234 to 236 °C"],
  ["COC(=O)c1c(OC)ccc([N+](=O)[O-])c1OC", "77 to 78 °C"],
  ["CCSc1cc(C)nc(SCC)c1NC(=O)CCCSc1nc2cccc(C(F)(F)F)c2o1", "148 to 150 °C"]
]}

Provide reported melting point for each item, in the same order as listed.
1. O=C(NCc1ccc(Cl)cc1)c1cnc2cc(C(F)(F)F)ccc2c1O
2. O=C(NN=Cc1c(O)ccc2ccccc12)c1ccccc1O

189 to 190 °C
265 °C

Go through the list and state melting point for each entry.
1. CCN(C1CC(C)(C)Oc2ccc(OCCO)cc21)S(C)(=O)=O (stereo unspecified)
2. O=C(O)CCc1nn(-c2ccc(F)cc2)c2c1CCCC2
3. Cc1ccc2c(c1)CCCN2CC(NS(=O)(=O)c1c(Cl)cc(Cl)cc1Cl)C(C)C (stereo unspecified)

1. 76 to 78 °C
2. 128 to 129 °C
3. 144 to 145 °C

Record melting point for all entries; do not skip any.
1. CC(C)(C)OC(=O)N[C@H]1C=C[C@@H](CO)C1
2. Cc1nn(CCCl)c(-c2ccc(F)cc2)c1-c1ccc2c(c1)NC(=O)CO2
3. O=C(O)C1=Cc2cc(C(=O)c3ccc(Cl)cc3)ccc2OC1C(F)(F)F (stereo unspecified)

68 to 70 °C
216 °C
268 to 269 °C

// batch mode: one melting point value per listed entry
1. CC(C)c1cccc(C(C)C)c1NC(=O)CN1CCN(CCCSc2nc3ccccc3s2)CC1
2. Brc1ccc(N2CCNCC2)nc1
3. CCC(Br)C(=O)NOCc1ccccc1 (stereo unspecified)

1: 113 to 115 °C; 2: 70.6 °C; 3: 99.3 to 102 °C

// each listed compound needs a value for melting point
1. CC(=S)NC[C@H]1CN(c2ccc(N3CCC4(CC3)OCCO4)c(F)c2)C(=O)O1
2. O=CNCCNC1=NS(=O)(=O)c2cc(Cl)ccc2N1

141 to 143 °C
245 to 247 °C

Where do the numbers come from? From a melting point compilation (Tetko et al.; mined from patent text by program, amines drawn as free bases though some values may be those of a salt).
